system: DNA-directed DNA polymerase; test: DNA-directed DNA polymerase inhibition; type: biochemical; conditions: concentration not given
PROPERTY_MEASURED: % inhibition (%)

>  <MOLECULE>
COC(=O)C1C(O)C(C)C(O)OC1C(C)C(O)C(C)C=CC=C(C)C(=O)Nc1c(C)c(OC(C)=O)c2c(c1O)C(=O)C(C)=C1OCOC(C(C)=CC(C)=O)=C12 (stereo not shown) [Streptoval C]

>  <UNITS_LABEL>
%

>  <OBSERVED_VALUE>
9.2

$$$$
>  <MOLECULE>
CC(=O)C=C(C)C1=C2C(=C(C)C(=O)c3c(O)c(NC(=O)C(C)=O)c(C)c(OC(C)=O)c32)OCO1 [Streptovarone]

>  <UNITS_LABEL>
%

>  <OBSERVED_VALUE>
12.2

$$$$
>  <MOLECULE>
CC(=O)C=CC=C(C)C(=O)Nc1c(C)c(OC(C)=O)c2c(c1O)C(=O)C(C)=C1OCOC(C(C)=CC(C)=O)=C12 [Prestreptovarone]

>  <UNITS_LABEL>
%

>  <OBSERVED_VALUE>
35.4

$$$$
>  <MOLECULE>
COC(=O)C1C(O)C(C)C(O)C(C)C=CC=C(C)C(=O)Nc2c(C)c(OC(C)=O)c3c(c2O)C(=O)C(C)=C2OCOC(=C23)C(C)=CC(C)(O)C(O)C(C)C1O (stereo not shown) [Streptovaricin C, reference compound]

>  <UNITS_LABEL>
%

>  <OBSERVED_VALUE>
0

$$$$

====

System: reverse transcriptase (RNA-directed DNA polymerase)
Assay: Reverse transcriptase (RNA-directed DNA polymerase) inhibition
Type: biochemical
Settings: concentration not given
Text: The assay and work-up conditions for reverse transcriptase analysis were essentially those described by Brockman, et al., (Nature, 230, 249 (1971)), except for eliminating the phosphate from the washing solution (10% trichloroacetic acid).
Output yes (1) for % inhibition not less than 80%; output no (0) otherwise.

>  <MOLECULE>
COC(=O)C1C(O)C(C)C(O)OC1C(C)C(O)C(C)C=CC=C(C)C(=O)Nc1c(C)c(OC(C)=O)c2c(c1O)C(=O)C(C)=C1OCOC(C(C)=CC(C)=O)=C12 (centres unmarked)

>  <CAT>
yes (1)

$$$$
>  <MOLECULE>
COC(=O)C1C(OC(C)=O)C(C)C(O)OC1C(C)C(O)C(C)(O)C=CC=C(C)C(=O)Nc1c(C)c(OC(C)=O)c2c(c1O)C(=O)C(C)=C1OCOC(C(C)=CC(C)=O)=C12 (centres unmarked)

>  <CAT>
yes (1)

$$$$
>  <MOLECULE>
COC(=O)C(C(O)C(C)C=O)C(OC(C)=O)C(C)C(O)C(C)(O)C=C(C)C1=C2C(=C(C)C(=O)c3c(O)c(NC(=O)C(C)=CC=CC(C)=O)c(C)c(OC(C)=O)c32)OCO1 (centres unmarked)

>  <CAT>
no (0)

$$$$
>  <MOLECULE>
CC(=O)C=CC=C(C)C(=O)Nc1c(C)c(OC(C)=O)c2c(c1O)C(=O)C(C)=C1OCOC(C(C)=CC(C)=O)=C12

>  <CAT>
no (0)

$$$$

====

biological target: E. coli RNA polymerase (Escherichia coli, UniProt P0A8V2); assay: Bacterial RNA polymerase inhibition; assay type: biochemical; details: 0.1 μmole/ml.
Sequence (P0A8V2 whole entry): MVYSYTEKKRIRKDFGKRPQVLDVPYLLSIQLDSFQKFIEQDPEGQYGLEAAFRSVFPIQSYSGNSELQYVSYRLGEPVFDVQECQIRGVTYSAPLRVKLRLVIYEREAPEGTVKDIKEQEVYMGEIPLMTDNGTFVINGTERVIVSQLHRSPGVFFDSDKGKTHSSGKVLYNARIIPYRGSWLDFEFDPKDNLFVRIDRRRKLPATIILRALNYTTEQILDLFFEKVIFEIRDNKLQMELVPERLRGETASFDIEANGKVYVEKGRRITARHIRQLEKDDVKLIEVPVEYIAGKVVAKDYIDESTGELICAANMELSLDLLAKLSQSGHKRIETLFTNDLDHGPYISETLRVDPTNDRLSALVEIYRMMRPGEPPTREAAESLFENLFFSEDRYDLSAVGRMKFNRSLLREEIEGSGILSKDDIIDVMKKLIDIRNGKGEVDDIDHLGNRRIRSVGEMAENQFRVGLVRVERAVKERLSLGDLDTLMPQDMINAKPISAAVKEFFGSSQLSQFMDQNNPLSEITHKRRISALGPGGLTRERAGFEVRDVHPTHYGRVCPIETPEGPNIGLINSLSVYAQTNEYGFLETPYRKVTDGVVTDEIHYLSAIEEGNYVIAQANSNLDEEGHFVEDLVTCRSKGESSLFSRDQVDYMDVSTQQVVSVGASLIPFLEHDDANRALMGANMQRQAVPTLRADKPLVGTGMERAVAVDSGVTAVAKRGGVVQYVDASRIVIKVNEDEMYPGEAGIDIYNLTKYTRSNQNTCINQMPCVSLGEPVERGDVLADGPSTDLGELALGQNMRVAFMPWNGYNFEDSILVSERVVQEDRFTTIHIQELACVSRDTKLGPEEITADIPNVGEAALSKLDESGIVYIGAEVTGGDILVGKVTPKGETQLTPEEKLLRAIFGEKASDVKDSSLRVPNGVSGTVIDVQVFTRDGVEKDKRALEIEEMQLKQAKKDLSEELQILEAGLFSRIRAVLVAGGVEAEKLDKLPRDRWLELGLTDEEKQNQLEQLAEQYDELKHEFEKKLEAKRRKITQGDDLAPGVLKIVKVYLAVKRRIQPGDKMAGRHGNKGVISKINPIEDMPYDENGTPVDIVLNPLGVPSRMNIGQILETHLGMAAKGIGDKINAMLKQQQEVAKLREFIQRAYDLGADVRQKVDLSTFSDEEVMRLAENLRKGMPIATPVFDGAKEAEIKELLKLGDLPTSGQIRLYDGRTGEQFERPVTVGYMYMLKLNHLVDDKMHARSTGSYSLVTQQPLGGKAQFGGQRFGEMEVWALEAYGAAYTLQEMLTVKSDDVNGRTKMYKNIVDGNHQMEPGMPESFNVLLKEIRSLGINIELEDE
Sequence (P0A8T7 whole entry partner): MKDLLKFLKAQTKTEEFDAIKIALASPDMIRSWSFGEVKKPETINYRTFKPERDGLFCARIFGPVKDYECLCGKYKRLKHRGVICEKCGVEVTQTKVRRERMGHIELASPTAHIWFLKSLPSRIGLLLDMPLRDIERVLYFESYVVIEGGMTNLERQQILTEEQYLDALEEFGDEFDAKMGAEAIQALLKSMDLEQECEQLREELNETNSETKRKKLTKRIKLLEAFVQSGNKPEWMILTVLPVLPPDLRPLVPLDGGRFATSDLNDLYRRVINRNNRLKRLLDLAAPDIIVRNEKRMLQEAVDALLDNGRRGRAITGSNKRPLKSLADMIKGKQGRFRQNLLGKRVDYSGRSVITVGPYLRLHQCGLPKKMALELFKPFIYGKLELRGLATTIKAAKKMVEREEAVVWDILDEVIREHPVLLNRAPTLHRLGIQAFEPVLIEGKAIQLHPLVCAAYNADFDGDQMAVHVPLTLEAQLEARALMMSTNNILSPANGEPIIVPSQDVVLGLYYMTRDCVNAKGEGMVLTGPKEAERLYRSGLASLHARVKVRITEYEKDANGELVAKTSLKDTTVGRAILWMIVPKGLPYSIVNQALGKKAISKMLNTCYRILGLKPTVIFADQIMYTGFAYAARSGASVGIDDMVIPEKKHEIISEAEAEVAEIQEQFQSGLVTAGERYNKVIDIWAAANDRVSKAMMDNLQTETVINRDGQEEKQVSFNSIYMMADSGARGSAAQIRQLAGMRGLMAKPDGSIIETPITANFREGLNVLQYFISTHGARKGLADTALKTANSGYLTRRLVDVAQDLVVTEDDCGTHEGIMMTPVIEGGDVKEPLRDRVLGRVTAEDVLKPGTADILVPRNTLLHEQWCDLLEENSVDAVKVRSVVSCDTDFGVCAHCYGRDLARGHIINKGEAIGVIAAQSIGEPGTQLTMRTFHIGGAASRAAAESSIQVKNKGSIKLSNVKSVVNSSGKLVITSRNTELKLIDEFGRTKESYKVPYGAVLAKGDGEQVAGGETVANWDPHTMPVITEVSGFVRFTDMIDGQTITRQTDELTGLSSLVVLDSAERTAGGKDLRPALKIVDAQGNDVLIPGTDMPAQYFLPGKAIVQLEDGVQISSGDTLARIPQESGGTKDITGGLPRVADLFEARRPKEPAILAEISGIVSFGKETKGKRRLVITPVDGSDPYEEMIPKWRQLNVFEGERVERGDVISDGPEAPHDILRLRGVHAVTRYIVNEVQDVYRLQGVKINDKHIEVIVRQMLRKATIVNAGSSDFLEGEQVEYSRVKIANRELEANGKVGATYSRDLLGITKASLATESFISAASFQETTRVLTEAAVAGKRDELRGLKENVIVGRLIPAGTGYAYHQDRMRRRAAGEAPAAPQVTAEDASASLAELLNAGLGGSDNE
Sequence (P0A7Z4 whole entry partner): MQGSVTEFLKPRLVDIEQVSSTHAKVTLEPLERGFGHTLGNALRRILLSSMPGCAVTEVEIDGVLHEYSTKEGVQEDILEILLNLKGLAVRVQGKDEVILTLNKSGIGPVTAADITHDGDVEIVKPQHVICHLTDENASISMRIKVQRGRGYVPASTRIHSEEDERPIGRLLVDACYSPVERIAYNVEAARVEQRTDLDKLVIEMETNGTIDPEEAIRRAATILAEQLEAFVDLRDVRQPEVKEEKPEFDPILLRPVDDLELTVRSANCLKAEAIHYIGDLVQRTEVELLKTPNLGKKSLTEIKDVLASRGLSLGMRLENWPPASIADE
Sequence (P0A800 2-91 partner limits assumed): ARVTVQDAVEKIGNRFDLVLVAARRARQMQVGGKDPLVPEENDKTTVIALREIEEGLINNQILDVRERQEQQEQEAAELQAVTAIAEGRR

>  <MOLECULE>
CC(=O)C=CC=C(C)C(=O)Nc1c(C)c(OC(C)=O)c2c(c1O)C(=O)C(C)=C1OCOC(C(C)=CC(C)=O)=C12

>  <TESTED_ON>
E. coli RNA polymerase (Escherichia coli, UniProt P0A8V2)

>  <% inhibition / %>
0

$$$$
>  <MOLECULE>
COC(=O)C(C(O)C(C)C=O)C(OC(C)=O)C(C)C(O)C(C)(O)C=C(C)C1=C2C(=C(C)C(=O)c3c(O)c(NC(=O)C(C)=CC=CC(C)=O)c(C)c(OC(C)=O)c32)OCO1 (stereo not drawn)

>  <TESTED_ON>
E. coli RNA polymerase (Escherichia coli, UniProt P0A8V2)

>  <% inhibition / %>
21

$$$$
>  <MOLECULE>
CC(=O)C=C(C)C1=C2C(=C(C)C(=O)c3c(O)c(NC(=O)C(C)=O)c(C)c(OC(C)=O)c32)OCO1

>  <TESTED_ON>
E. coli RNA polymerase (Escherichia coli, UniProt P0A8V2)

>  <% inhibition / %>
0

$$$$
>  <MOLECULE>
COC(=O)C1C(O)C(C)C(O)OC1C(C)C(=O)C(C)C=CC=C(C)C(=O)Nc1c(C)c(OC(C)=O)c2c(c1O)C(=O)C(C)=C1OCOC(C(C)=CC(C)=O)=C12 (stereo not drawn)

>  <TESTED_ON>
E. coli RNA polymerase (Escherichia coli, UniProt P0A8V2)

>  <% inhibition / %>
7

$$$$
>  <MOLECULE>
COC(=O)C(C(O)C(C)C=O)C(O)C(C)C(O)C(C)(O)C=C(C)C1=C2C(=C(C)C(=O)c3c(O)c(NC(=O)C(C)=CC=CC(C)=O)c(C)c(OC(C)=O)c32)OCO1 (stereo not drawn)

>  <TESTED_ON>
E. coli RNA polymerase (Escherichia coli, UniProt P0A8V2)

>  <% inhibition / %>
52

$$$$
>  <MOLECULE>
COC(=O)C1C(OC(C)=O)C(C)C(O)OC1C(C)C(O)C(C)(O)C=CC=C(C)C(=O)Nc1c(C)c(OC(C)=O)c2c(c1O)C(=O)C(C)=C1OCOC(C(C)=CC(C)=O)=C12 (stereo not drawn)

>  <TESTED_ON>
E. coli RNA polymerase (Escherichia coli, UniProt P0A8V2)

>  <% inhibition / %>
35

$$$$
